Test system: 628569-122-R-J1-PDC complex spheroid viability
Assay: Anticancer human tumor 628569-122-R-J1-PDC patient-derived head and neck squamous carcinoma cell line growth inhibition [CLK]
Conditions: curve of first compound; second compound 1 µM
MEASUREMENT_KIND: IC50

Worked examples follow.
Cn1ncnc1[C@H]1c2n[nH]c(=O)c3cc(F)cc(c23)N[C@@H]1c1ccc(F)cc1 + CN1CCN(c2cc(C(=O)Nc3cc4cc(-c5cnn(C)c5)ccc4cn3)ccn2)CC1; < 0.316 nM
O=c1[nH]cc(F)c(=O)[nH]1 + CN1CCN(c2cc(C(=O)Nc3cc4cc(-c5cnn(C)c5)ccc4cn3)ccn2)CC1; < 31.6 nM
C#Cc1c(F)ccc2cc(O)cc(-c3ncc4c(N5CC6CCC(C5)N6)nc(OCC56CCCN5CC(F)C6)nc4c3F)c12 (stereo unspecified) + CN1CCN(c2cc(C(=O)Nc3cc4cc(-c5cnn(C)c5)ccc4cn3)ccn2)CC1; < 31.6 nM
C=CC(=O)N1CCN(c2nc(=O)n(-c3c(C)ccnc3C(C)C)c3nc(-c4c(O)cccc4F)c(F)cc23)C(C)C1 (stereo unspecified) + CN1CCN(c2cc(C(=O)Nc3cc4cc(-c5cnn(C)c5)ccc4cn3)ccn2)CC1; < 31.6 nM
CCCS(=O)(=O)Nc1ccc(F)c(C(=O)c2c[nH]c3ncc(-c4ccc(Cl)cc4)cc23)c1F + CNC(=O)c1ccc(Nc2nc(OC3CCCC3)c3c(-c4ccc5nc(C)oc5c4)c[nH]c3n2)c(OC)c1; < 31.6 nM

GET /value?item= COc1cccc2c1C(=O)c1c(O)c3c(c(O)c1C2=O)CC(O)(C(=O)CO)CC3OC1CC(N)C(O)C(C)O1 (stereo unspecified) + CN1CCN(c2cc(C(=O)Nc3cc4cc(-c5cnn(C)c5)ccc4cn3)ccn2)CC1 &field=IC50 returns < 31.6 nM

COC1C=CCC(C)C(C)S(=O)(=O)NC(=O)c2ccc3c(c2)N(CC2CCC21)CC1(CCCc2cc(Cl)ccc21)CO3 (stereo unspecified) + CNC(=O)c1ccc(Nc2nc(OC3CCCC3)c3c(-c4ccc5nc(C)oc5c4)c[nH]c3n2)c(OC)c1 has a reported IC50 of < 31.6 nM

Per the record, C=C(F)C(=O)N1CCN(c2nc(OCC3CCCN3C)nc3c2CCN(c2cccc4cccc(Cl)c24)C3)CC1CC#N (stereo unspecified) + CN1CCN(c2cc(C(=O)Nc3cc4cc(-c5cnn(C)c5)ccc4cn3)ccn2)CC1 has IC50 of < 31.6 nM

// IC50 lookup, compound = CC(Nc1ccc2c(c1)OCCn1cc(N3C(=O)OCC3C(F)F)nc1-2)C(N)=O (stereo unspecified) + CNC(=O)c1ccc(Nc2nc(OC3CCCC3)c3c(-c4ccc5nc(C)oc5c4)c[nH]c3n2)c(OC)c1 , result: < 31.6 nM

Measured IC50 of COc1ccc([C@@H](O)c2cc(-c3ncnc4cc(N5CCOCC5)ccc34)c(F)cc2Cl)nn1 + CNC(=O)c1ccc(Nc2nc(OC3CCCC3)c3c(-c4ccc5nc(C)oc5c4)c[nH]c3n2)c(OC)c1 : < 31.6 nM

----------
Tested on: 628569-122-R-J1-PDC complex spheroid viability
Experiment: Anticancer human tumor 628569-122-R-J1-PDC cell line growth inhibition [CLK];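 also: spheroids exposed to agents for seven days before readout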;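 as to viability, T/C: 100% = DMSO vehicle control viability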
Settings: second compound 10 µM; first compound 10 µM; stronger effect = lower value
MEASUREMENT_KIND: viability, T/C (%)
Record the value in %, omitting the unit from your answer.

Record excerpt, results attached:
CC(=O)O[C@H]1C(=O)[C@@]2(C)[C@H]([C@H](OC(=O)c3ccccc3)[C@]3(O)C[C@H](OC(=O)[C@H](O)[C@@H](NC(=O)c4ccccc4)c4ccccc4)C(C)=C1C3(C)C)[C@]1(OC(C)=O)CO[C@@H]1C[C@@H]2O + CNC(=O)c1ccc(Nc2nc(OC3CCCC3)c3c(-c4ccc5nc(C)oc5c4)c[nH]c3n2)c(OC)c1; 69.9
CC1COCCN1c1cc(C2(S(C)(=N)=O)CC2)nc(-c2ccnc3[nH]ccc23)n1 (stereo not given) + CNC(=O)c1ccc(Nc2nc(OC3CCCC3)c3c(-c4ccc5nc(C)oc5c4)c[nH]c3n2)c(OC)c1; 29.4
C=C(F)C(=O)N1CCN(c2nc(OCC3CCCN3C)nc3c2CCN(c2cccc4cccc(Cl)c24)C3)CC1CC#N (stereo not given) + CN1CCN(c2cc(C(=O)Nc3cc4cc(-c5cnn(C)c5)ccc4cn3)ccn2)CC1; 1.32

Quick note, viability, T/C for COC1C=CCC(C)C(C)S(=O)(=O)NC(=O)c2ccc3c(c2)N(CC2CCC21)CC1(CCCc2cc(Cl)ccc21)CO3 (stereo not given) + CN1CCN(c2cc(C(=O)Nc3cc4cc(-c5cnn(C)c5)ccc4cn3)ccn2)CC1 landed at 1.39

Looking up Nc1ccccc1NC(=O)c1ccc(CNC(=O)OCc2cccnc2)cc1 + CN1CCN(c2cc(C(=O)Nc3cc4cc(-c5cnn(C)c5)ccc4cn3)ccn2)CC1 , I found its viability, T/C recorded as 1.39

Note to self: viability, T/C recorded for C=CC(=O)N1CCN(c2nc(=O)n(-c3c(C)ccnc3C(C)C)c3nc(-c4c(O)cccc4F)c(F)cc23)C(C)C1 (stereo not given) + CNC(=O)c1ccc(Nc2nc(OC3CCCC3)c3c(-c4ccc5nc(C)oc5c4)c[nH]c3n2)c(OC)c1 was 44

----------
Tested on: 628569-122-R-J1-PDC complex spheroid viability
Test: Anticancer human tumor 628569-122-R-J1-PDC cell line growth inhibition [CLK];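 also: spheroids exposed to agents for seven days before readout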;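 as to viability, T/C: 100% = DMSO vehicle control viability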
Conditions: second compound 10 µM; first compound 0.0316 µM; stronger effect = lower value
MEASUREMENT_KIND: viability, T/C (%)
Respond numerically; units are % and should not be typed.

As a guide, the following entries are already answered.
CC(Nc1ccc2c(c1)OCCn1cc(N3C(=O)OCC3C(F)F)nc1-2)C(N)=O (stereo not given) + CN1CCN(c2cc(C(=O)Nc3cc4cc(-c5cnn(C)c5)ccc4cn3)ccn2)CC1; 6.06
COc1cccc2c1C(=O)c1c(O)c3c(c(O)c1C2=O)CC(O)(C(=O)CO)CC3OC1CC(N)C(O)C(C)O1 (stereo not given) + CNC(=O)c1ccc(Nc2nc(OC3CCCC3)c3c(-c4ccc5nc(C)oc5c4)c[nH]c3n2)c(OC)c1; 41
CCc1c2c(nc3ccc(O)cc13)-c1cc3c(c(=O)n1C2)COC(=O)[C@]3(O)CC + CN1CCN(c2cc(C(=O)Nc3cc4cc(-c5cnn(C)c5)ccc4cn3)ccn2)CC1; 4
CCCS(=O)(=O)Nc1ccc(F)c(C(=O)c2c[nH]c3ncc(-c4ccc(Cl)cc4)cc23)c1F + CNC(=O)c1ccc(Nc2nc(OC3CCCC3)c3c(-c4ccc5nc(C)oc5c4)c[nH]c3n2)c(OC)c1; 39.7
COc1c(OCCCN2CCOCC2)ccc2c3n(c(=NC(=O)c4cnc(N)nc4)nc12)CCN3 + CNC(=O)c1ccc(Nc2nc(OC3CCCC3)c3c(-c4ccc5nc(C)oc5c4)c[nH]c3n2)c(OC)c1; 30.3
C#Cc1c(F)ccc2cc(O)cc(-c3ncc4c(N5CC6CCC(C5)N6)nc(OCC56CCCN5CC(F)C6)nc4c3F)c12 (stereo not given) + CNC(=O)c1ccc(Nc2nc(OC3CCCC3)c3c(-c4ccc5nc(C)oc5c4)c[nH]c3n2)c(OC)c1; 49.4

Okay, next one:
Noted for Nc1ccccc1NC(=O)c1ccc(CNC(=O)OCc2cccnc2)cc1 + CNC(=O)c1ccc(Nc2nc(OC3CCCC3)c3c(-c4ccc5nc(C)oc5c4)c[nH]c3n2)c(OC)c1 : its viability, T/C reads 48.6

----------
Test system: 628569-122-R-J1-PDC complex spheroid viability
Assay: Anticancer human tumor 628569-122-R-J1-PDC cell line growth inhibition [CLK];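 also: spheroids exposed to agents for seven days before readout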;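 as to viability, T/C: 100% = DMSO vehicle control viability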
Conditions: second compound 0.0316 µM; first compound 10 µM; stronger effect = lower value
MEASUREMENT_KIND: viability, T/C (%)
# output: bare number, implied unit %

C=CC(=O)N1CCN(c2nc(=O)n(-c3c(C)ccnc3C(C)C)c3nc(-c4c(O)cccc4F)c(F)cc23)C(C)C1 (stereo not given) + CNC(=O)c1ccc(Nc2nc(OC3CCCC3)c3c(-c4ccc5nc(C)oc5c4)c[nH]c3n2)c(OC)c1; 125

The recorded viability, T/C for COC1C=CCC(C)C(C)S(=O)(=O)NC(=O)c2ccc3c(c2)N(CC2CCC21)CC1(CCCc2cc(Cl)ccc21)CO3 (stereo not given) + CN1CCN(c2cc(C(=O)Nc3cc4cc(-c5cnn(C)c5)ccc4cn3)ccn2)CC1 is 40.1

Entry CC1COCCN1c1cc(C2(S(C)(=N)=O)CC2)nc(-c2ccnc3[nH]ccc23)n1 (stereo not given) + CNC(=O)c1ccc(Nc2nc(OC3CCCC3)c3c(-c4ccc5nc(C)oc5c4)c[nH]c3n2)c(OC)c1 , viability, T/C reported as 35.3

Reported viability, T/C for CC1COCCN1c1cc(C2(S(C)(=N)=O)CC2)nc(-c2ccnc3[nH]ccc23)n1 (stereo not given) + CN1CCN(c2cc(C(=O)Nc3cc4cc(-c5cnn(C)c5)ccc4cn3)ccn2)CC1 was 46.1

Noted for C=C(F)C(=O)N1CCN(c2nc(OCC3CCCN3C)nc3c2CCN(c2cccc4cccc(Cl)c24)C3)CC1CC#N (stereo not given) + CN1CCN(c2cc(C(=O)Nc3cc4cc(-c5cnn(C)c5)ccc4cn3)ccn2)CC1 : its viability, T/C reads 30.6

Where do the numbers come from? From PubChem BioAssay AID2060611.
